These entries and their values trace back to patent US20230090255A1.

System: irritable bowel syndrome rats
TEST METHOD NOTES: Irritable bowel syndrome rats induced by early maternal separation
Type: in vivo, SD rats
Set-up: scale not given here
EXPERIMENTAL PARAMETERS: IBS rats; low dose 7.5 mg/kg ig 20 d; 60 mm Hg

SMILES ENTRY: O=C(Nc1cccc(Cl)c1)C1CCN(C(=O)c2cc3ccccc3[nH]2)CC1
AWR scoring: 3.65±0.23^∗
//
SMILES ENTRY: O=C(Nc1cccc(Cl)c1)C1CCN(C(=O)c2cccc(O)c2)CC1
AWR scoring: 3.60±0.22^∗∗
//
SMILES ENTRY: O=C(Nc1cccc(Cl)c1)C1CCN(C(=O)c2cc(O)ccc2F)CC1
AWR scoring: 3.58±0.26^∗∗

###

List of Colon 5-HT values.
Tested on: irritable bowel syndrome rats
TEST METHOD NOTES: Irritable bowel syndrome rats induced by early maternal separation
Format: in vivo, SD rats
EXPERIMENTAL PARAMETERS: IBS rats; middle dose 15 mg/kg ig 20 d

MOLECULE: O=C(Nc1cccc(Cl)c1)C1CCN(C(=O)c2cc3cc(F)ccc3[nH]2)CC1 [MAGLZ-II-18 (a)]
Colon 5-HT: 14.64 ± 2.17 µg/mg
//
MOLECULE: Cn1c(C(=O)N2CCC(C(=O)Nc3cccc(Cl)c3)CC2)cc2ccccc21 [MAGLZ-II-18 (c)]
Colon 5-HT: 14.99±2.90^∗∗ µg/mg
//
MOLECULE: O=C(Nc1cccc(Cl)c1)C1CCN(C(=O)c2cc(O)ccc2F)CC1 [MAGLZ-II-11 (a)]
Colon 5-HT: 14.79±2.73^∗∗∗ µg/mg
//
MOLECULE: O=C(Nc1cccc(Cl)c1)C1CCN(C(=O)c2cc3ccccc3[nH]2)CC1 [MAGLZ-II-18]
Colon 5-HT: 14.89±3.19^∗∗ µg/mg

###

SYSTEM UNDER TEST: recombinant human protein MAGL (Homo sapiens)
Sequence (Q99685 whole entry): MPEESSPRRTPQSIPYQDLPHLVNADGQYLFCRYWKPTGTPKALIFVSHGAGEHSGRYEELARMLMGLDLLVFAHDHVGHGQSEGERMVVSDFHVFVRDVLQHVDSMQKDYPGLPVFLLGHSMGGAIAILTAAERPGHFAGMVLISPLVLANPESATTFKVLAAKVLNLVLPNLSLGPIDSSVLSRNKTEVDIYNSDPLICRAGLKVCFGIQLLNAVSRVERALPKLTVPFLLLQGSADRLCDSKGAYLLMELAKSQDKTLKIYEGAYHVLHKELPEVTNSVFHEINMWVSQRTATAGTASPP
TEST METHOD NOTES: MAGL enzyme analysis (Cayman MAGL inhibitor screening kit)
EXPERIMENTAL PARAMETERS: 4-nitrophenylacetic acid substrate, absorbance 410 nm, read-out: MAGLXIC50
ENDPOINT NAME: IC50 (nM)

COMPOUND: O=C(Nc1cccc(Cl)c1)C1CCN(C(=O)c2cccc(O)c2)CC1
ENDPOINT NAME: IC50
DATA VALUE: 96
//
COMPOUND: O=C(c1cccc(O)c1)N1CCC(c2nc3cc(Cl)ccc3o2)CC1
ENDPOINT NAME: IC50
DATA VALUE: 11
//
COMPOUND: O=C(Nc1cc(Cl)cc(Cl)c1)C1CCN(C(=O)c2ccc3ccccc3c2)CC1
ENDPOINT NAME: IC50
DATA VALUE: 139
//
COMPOUND: N[C@H](Cc1ccc(O)cc1)C(=O)Oc1cccc(C(=O)N2CCC(C(=O)Nc3cccc(Cl)c3)CC2)c1 [MAGLZ-II-11J]
ENDPOINT NAME: IC50
DATA VALUE: 1600
//
COMPOUND: O=C(Nc1cccc(Cl)c1)C1CCN(C(=O)c2cc3cc(F)ccc3[nH]2)CC1
ENDPOINT NAME: IC50
DATA VALUE: 2150
//
COMPOUND: Cc1cc(C)cc(NC(=O)C2CCN(C(=O)c3ccc(Oc4ccccc4)cc3)CC2)c1
ENDPOINT NAME: IC50
DATA VALUE: 27
//
COMPOUND: COc1cccc(NC(=O)C2CCN(C(=O)c3ccc(Oc4ccccc4)cc3)CC2)c1
ENDPOINT NAME: IC50
DATA VALUE: 749
